# maps each entry to its response
measuredOn: Beta-2 adrenergic receptor (Homo sapiens) (UniProt P07550)
Sequence (P07550 whole entry, looked up): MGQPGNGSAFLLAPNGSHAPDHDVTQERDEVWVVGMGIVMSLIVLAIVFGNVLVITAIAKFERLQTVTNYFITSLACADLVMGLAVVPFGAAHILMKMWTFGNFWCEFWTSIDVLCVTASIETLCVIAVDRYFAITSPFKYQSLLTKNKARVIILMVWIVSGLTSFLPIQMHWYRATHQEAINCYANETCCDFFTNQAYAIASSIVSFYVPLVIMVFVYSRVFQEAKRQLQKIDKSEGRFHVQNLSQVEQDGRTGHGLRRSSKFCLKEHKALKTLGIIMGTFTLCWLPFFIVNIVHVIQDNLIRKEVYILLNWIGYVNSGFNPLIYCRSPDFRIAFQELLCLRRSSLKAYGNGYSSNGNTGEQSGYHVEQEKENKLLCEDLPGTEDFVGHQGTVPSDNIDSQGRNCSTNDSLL
protocolNotes: agonist-induced loss of surface beta2AR – cell-based, FAP fluorogen, flow cytometry, validation set, pilot screen (AID 504459);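 also: agonist-driven loss of surface beta2AR via internalization measured by FAP dye flow cytometry; reference of the scale not given here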
recordedConditions: Am2.2-beta2AR cells, at 10 µM, active compounds read high
Active and inactive are the calls of the source.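 The calls were made as follows: active = percent response above 42, roughly 3 SD of non-fluorescent test compounds; inactive = the rest.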

Could you tell me which response is on file for OCCC1CN(Cc2nc(-c3ccccc3)cs2)CCN1Cc1ccc(F)cc1 (centres undefined) ?
2.61% (inactive)

Could you tell me which response is on file for COc1ccccc1OCC(=O)O ?
-4.79% (inactive)

Could you tell me which response is on file for Cc1ccsc1/C=C/C1=NCCCN1C ?
3.43% (inactive)

Could you tell me which response is on file for O=Cc1ccc(OC(=O)c2cccnc2)cc1 ?
-10.5% (inactive)

Could you tell me which response is on file for CC(NC(=O)c1cccnc1)C(=O)O (centres undefined) ?
-9.77% (inactive)

New cases:
Could you tell me which response is on file for CC(C)CN1CCN(Cc2cccn2-c2ccccn2)CC1CCO (centres undefined) ?
-7.51% (inactive)

Could you tell me which response is on file for Cc1ccc(C2=NOC(=O)/C2=C\C=C\c2ccccc2)cc1 ?
34% (inactive)

Could you tell me which response is on file for Nc1ccn([C@@H]2O[C@H](CO)[C@@H](O)[C@@H]2O)c(=O)n1 ?
-9.36% (inactive)

Could you tell me which response is on file for Cc1ccc2c(ccc(=S)n2C)c1 ?
-14% (inactive)

Could you tell me which response is on file for CCOC(=O)c1ccc(NC(=S)NCCc2ccccc2F)cc1 ?
2.84% (inactive)

The reported measurements were obtained from PubChem BioAssay.
